Target: GST-Co-NF-kB (Capsaspora owczarzaki, UniProt F1ARL5 200-546)
Sequence: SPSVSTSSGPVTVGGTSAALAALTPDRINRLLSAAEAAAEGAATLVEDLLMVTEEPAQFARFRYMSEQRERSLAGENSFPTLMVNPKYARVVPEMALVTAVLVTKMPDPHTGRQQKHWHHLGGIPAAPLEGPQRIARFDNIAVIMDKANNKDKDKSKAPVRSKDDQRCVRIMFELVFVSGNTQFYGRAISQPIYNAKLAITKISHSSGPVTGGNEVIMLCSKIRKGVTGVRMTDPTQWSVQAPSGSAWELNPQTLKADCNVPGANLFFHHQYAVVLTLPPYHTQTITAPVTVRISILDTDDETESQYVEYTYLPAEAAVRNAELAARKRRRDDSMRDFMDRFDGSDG
Assay: protein-binding microarray (PBM); PBM: ~300 nM protein, 6 mM HEPES pH 7.8, 80 mM KCl, 0.5 mM EDTA, 0.5 mM EGTA, 6% glycerol, 35 ng/ul poly-dIdC, 1% milk, 1 h, room temperature; high values mean tight binding
Conditions: dsDNA, one strand shown
Mark T only when binding signal stays strictly below 3 z-score. Values equal to the cut-off are F.

The following sequences have reported results that may help.
[[record]]
chain_sequence = "CCGATTAACATCAAGTTTCCCCCTGATGTTAATCGGGTCTTGATTCGCTTGACGCTGCTG"
test_system = "GST-Co-NF-kB (Capsaspora owczarzaki, UniProt F1ARL5 200-546)"
group_label = "F"

[[record]]
chain_sequence = "CCGATTAACATCAAACCCCCCCATGATGTTAATCGGGTCTTGATTCGCTTGACGCTGCTG"
test_system = "GST-Co-NF-kB (Capsaspora owczarzaki, UniProt F1ARL5 200-546)"
group_label = "F"


I'd appreciate it if you could check whether "CCGATTAACATCAGGGTATTTTATGATGTTAATCGGGTCTTGATTCGCTTGACGCTGCTG" has binding signal smaller than 3 z-score.
F

Threshold test, binding signal < 3 z-score: "CCGATTAACATCAAATAGCCCCCTGATGTTAATCGGGTCTTGATTCGCTTGACGCTGCTG"
T

In plain terms, does "CCGATTAACATCACTGAAATCCCTGATGTTAATCGGGTCTTGATTCGCTTGACGCTGCTG" come in under 3 z-score for binding signal?
T

* * *

Target: GST-Hu-p50 (Homo sapiens, UniProt P19838 7-356)
Sequence (P19838 7-356): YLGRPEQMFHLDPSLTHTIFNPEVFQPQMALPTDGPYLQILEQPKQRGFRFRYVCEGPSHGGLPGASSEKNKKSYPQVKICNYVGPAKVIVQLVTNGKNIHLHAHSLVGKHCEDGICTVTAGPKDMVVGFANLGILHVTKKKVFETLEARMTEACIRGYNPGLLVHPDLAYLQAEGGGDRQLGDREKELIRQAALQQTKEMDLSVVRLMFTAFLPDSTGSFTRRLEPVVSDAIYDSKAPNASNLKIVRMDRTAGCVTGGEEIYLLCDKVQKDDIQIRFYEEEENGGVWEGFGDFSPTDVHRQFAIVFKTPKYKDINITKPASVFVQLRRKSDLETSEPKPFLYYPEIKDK
Assay: protein-binding microarray (PBM); PBM: ~300 nM protein, 6 mM HEPES pH 7.8, 80 mM KCl, 0.5 mM EDTA, 0.5 mM EGTA, 6% glycerol, 35 ng/ul poly-dIdC, 1% milk, 1 h, room temperature; high values mean tight binding
Conditions: dsDNA, one strand shown
Recorded binding signal values for a group of sequences are listed next.
Your answer is read as z-score, so omit the unit and give the number.

[[record]]
chain_sequence = "CCGATTAACATCACATATTCCCCTGATGTTAATCGGGTCTTGATTCGCTTGACGCTGCTG"
value_unit = "z-score"
recorded_number = 5.69

[[record]]
chain_sequence = "CCGATTAACATCAGGGAAGGCCCTGATGTTAATCGGGTCTTGATTCGCTTGACGCTGCTG"
value_unit = "z-score"
recorded_number = 2.96

[[record]]
chain_sequence = "CCGATTAACATCAGGGAGATCCCTGATGTTAATCGGGTCTTGATTCGCTTGACGCTGCTG"
value_unit = "z-score"
recorded_number = 4.68

[[record]]
chain_sequence = "CCGATTAACATCAAAATTCCCTATGATGTTAATCGGGTCTTGATTCGCTTGACGCTGCTG"
value_unit = "z-score"
recorded_number = 5.69


Complete the entry with binding signal for "CCGATTAACATCAGGGAACTCCCTGATGTTAATCGGGTCTTGATTCGCTTGACGCTGCTG"
6.16

* * *

Biological target: GST-Aq-NF-kB (Amphimedon queenslandica, UniProt A9Y5G7 2-389)
Sequence: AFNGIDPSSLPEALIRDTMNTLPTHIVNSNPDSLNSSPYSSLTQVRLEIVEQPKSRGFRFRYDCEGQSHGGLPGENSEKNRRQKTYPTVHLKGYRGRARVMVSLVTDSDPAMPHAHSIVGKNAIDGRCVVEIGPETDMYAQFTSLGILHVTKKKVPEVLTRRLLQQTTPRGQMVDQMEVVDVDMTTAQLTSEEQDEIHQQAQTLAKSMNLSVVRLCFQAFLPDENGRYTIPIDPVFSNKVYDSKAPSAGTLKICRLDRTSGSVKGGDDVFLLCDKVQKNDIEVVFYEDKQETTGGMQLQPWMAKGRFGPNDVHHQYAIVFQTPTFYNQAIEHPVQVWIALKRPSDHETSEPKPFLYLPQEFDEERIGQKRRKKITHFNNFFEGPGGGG
Test: protein-binding microarray (PBM); PBM: ~300 nM protein, 6 mM HEPES pH 7.8, 80 mM KCl, 0.5 mM EDTA, 0.5 mM EGTA, 6% glycerol, 35 ng/ul poly-dIdC, 1% milk, 1 h, room temperature; high values mean tight binding
Settings: dsDNA, one strand shown
I'd appreciate it if you marked entries T when binding signal is lower than 4 z-score and F when it is not.

is_below(binding signal, 4 z-score) for "CCGATTAACATCACGATTTTCCCTGATGTTAATCGGGTCTTGATTCGCTTGACGCTGCTG" ?
F

In plain terms, does "CCGATTAACATCAGGAAGGCCCCTGATGTTAATCGGGTCTTGATTCGCTTGACGCTGCTG" come in under 4 z-score for binding signal?
F

Record "CCGATTAACATCAGAAGACCCCCTGATGTTAATCGGGTCTTGATTCGCTTGACGCTGCTG" : is its binding signal strictly below 4 z-score?
F

Does "CCGATTAACATCAGGGGGTGGTATGATGTTAATCGGGTCTTGATTCGCTTGACGCTGCTG" have binding signal strictly under 4 z-score?
T

Would you kindly verify if binding signal of "CCGATTAACATCAAAAATTTCCGTGATGTTAATCGGGTCTTGATTCGCTTGACGCTGCTG" is strictly less than 4 z-score?
T

Please indicate whether the reported binding signal of "CCGATTAACATCAGGAGAGCCCCTGATGTTAATCGGGTCTTGATTCGCTTGACGCTGCTG" is strictly below 4 z-score.
F

* * *

Target: GST-Co-NF-kB (Capsaspora owczarzaki, UniProt F1ARL5 200-546)
Sequence: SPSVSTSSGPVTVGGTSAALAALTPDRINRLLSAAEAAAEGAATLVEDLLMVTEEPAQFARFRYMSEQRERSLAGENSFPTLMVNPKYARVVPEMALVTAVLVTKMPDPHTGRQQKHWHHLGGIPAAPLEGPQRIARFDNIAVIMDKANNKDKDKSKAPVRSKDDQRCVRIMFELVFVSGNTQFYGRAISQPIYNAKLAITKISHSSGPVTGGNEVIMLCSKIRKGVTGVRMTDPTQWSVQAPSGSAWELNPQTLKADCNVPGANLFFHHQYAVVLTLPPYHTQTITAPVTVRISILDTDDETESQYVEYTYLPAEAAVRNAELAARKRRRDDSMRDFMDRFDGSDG
Experiment: protein-binding microarray (PBM); PBM: ~300 nM protein, 6 mM HEPES pH 7.8, 80 mM KCl, 0.5 mM EDTA, 0.5 mM EGTA, 6% glycerol, 35 ng/ul poly-dIdC, 1% milk, 1 h, room temperature; high values mean tight binding
Settings: dsDNA, one strand shown
readout_kind: binding signal
I'd appreciate it if you wrote the number followed by its unit.

[[record]]
chain_sequence = "CCGATTAACATCAGTTGGGAAAATGATGTTAATCGGGTCTTGATTCGCTTGACGCTGCTG"
result = "2.64 z-score"

[[record]]
chain_sequence = "CCGATTAACATCAGGAACTACCCTGATGTTAATCGGGTCTTGATTCGCTTGACGCTGCTG"
result = "1.33 z-score"

[[record]]
chain_sequence = "CCGATTAACATCAATCCCCCCCCTGATGTTAATCGGGTCTTGATTCGCTTGACGCTGCTG"
result = "7.2 z-score"


Note down binding signal recorded for "CCGATTAACATCAATTATCCCCCTGATGTTAATCGGGTCTTGATTCGCTTGACGCTGCTG"
7.87 z-score

Give a short answer stating reported binding signal for "CCGATTAACATCACTAATTTCCCTGATGTTAATCGGGTCTTGATTCGCTTGACGCTGCTG" .
4.57 z-score

* * *

The following sequences are listed with their measured binding signal values.
Target: GST-Nv-NF-kB (Ser allele) (Nematostella vectensis, UniProt A7UNT2 2-411)
Sequence: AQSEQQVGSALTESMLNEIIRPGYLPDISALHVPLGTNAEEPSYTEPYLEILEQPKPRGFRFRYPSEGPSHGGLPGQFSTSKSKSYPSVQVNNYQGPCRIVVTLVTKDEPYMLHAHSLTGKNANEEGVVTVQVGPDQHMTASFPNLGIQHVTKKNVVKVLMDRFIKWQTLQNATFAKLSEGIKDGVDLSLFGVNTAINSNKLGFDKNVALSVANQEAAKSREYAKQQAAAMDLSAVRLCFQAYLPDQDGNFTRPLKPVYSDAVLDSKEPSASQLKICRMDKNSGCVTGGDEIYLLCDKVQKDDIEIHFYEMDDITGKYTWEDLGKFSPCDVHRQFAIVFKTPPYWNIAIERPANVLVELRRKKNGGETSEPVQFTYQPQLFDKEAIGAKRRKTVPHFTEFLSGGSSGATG
Test: protein-binding microarray (PBM); PBM: ~300 nM protein, 6 mM HEPES pH 7.8, 80 mM KCl, 0.5 mM EDTA, 0.5 mM EGTA, 6% glycerol, 35 ng/ul poly-dIdC, 1% milk, 1 h, room temperature; Ap Aiptasia and Nv Nematostella (sea anemones) / Co Capsaspora / Aq Amphimedon (sponge) / Dm Drosophila / Hu human; RHD is the Rel homology domain; high values mean tight binding
Conditions: dsDNA, one strand shown
Return type: number; implicit unit z-score.

[[record]]
chain_sequence = "CCGATTAACATCACTCATCCCCGTGATGTTAATCGGGTCTTGATTCGCTTGACGCTGCTG"
value_unit = "z-score"
recorded_number = 3.8


Return value of binding signal for input "CCGATTAACATCAGGGGAAATGATGATGTTAATCGGGTCTTGATTCGCTTGACGCTGCTG" , no commentary.
9.61

Quote binding signal reported for "CCGATTAACATCAGGAAGCCCCATGATGTTAATCGGGTCTTGATTCGCTTGACGCTGCTG" please.
2.15

Return value of binding signal for input "CCGATTAACATCAGGAAAACCCCTGATGTTAATCGGGTCTTGATTCGCTTGACGCTGCTG" , no commentary.
6.66

Supply reported binding signal belonging to this sequence: "CCGATTAACATCAGGACTTCCCCTGATGTTAATCGGGTCTTGATTCGCTTGACGCTGCTG"
9.94

Consider the sequence "CCGATTAACATCACAGTTCCCCCTGATGTTAATCGGGTCTTGATTCGCTTGACGCTGCTG" . State its measured binding signal.
7.51

Identify the reported binding signal for the following entry. "CCGATTAACATCAGGGAAATACATGATGTTAATCGGGTCTTGATTCGCTTGACGCTGCTG"
4.73

Report measured binding signal; entry is "CCGATTAACATCAGGGGAAACGATGATGTTAATCGGGTCTTGATTCGCTTGACGCTGCTG"
8.83

For the sequence "CCGATTAACATCAGGGGGCACCCTGATGTTAATCGGGTCTTGATTCGCTTGACGCTGCTG" , give its measured binding signal value.
2.57

Supply measured binding signal of "CCGATTAACATCAGGAAAATCCCTGATGTTAATCGGGTCTTGATTCGCTTGACGCTGCTG" in your reply.
4.73

Give binding signal for the following sequence: "CCGATTAACATCAGGGCGCCCCCTGATGTTAATCGGGTCTTGATTCGCTTGACGCTGCTG"
3.38
